B1: library; numbered along this chain (parent)
chain: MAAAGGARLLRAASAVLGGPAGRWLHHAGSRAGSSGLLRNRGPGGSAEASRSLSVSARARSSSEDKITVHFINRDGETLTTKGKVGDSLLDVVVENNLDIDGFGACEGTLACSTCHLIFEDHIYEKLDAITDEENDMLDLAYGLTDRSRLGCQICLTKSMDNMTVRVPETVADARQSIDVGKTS

variants of: B1; assay: scaled log2 fold change in cell abundance, elesclomol vs control (0 = silent mean, 1 = nonsense mean) (scaled log2 ratio); higher = higher viability under elesclomol (loss of FDX1 cuproptosis function); details: with HEK293T FDX1 KO; elesclomol 40 nM; glucose 10 mM; 11 days;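 also: variant abundance is its share of total variant reads in each endpoint sample, from next-generation sequencing of the integrated ORF PCR-amplified out of genomic DNA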
Label scheme for scaled log2 fold change: lower than 0.3 is criterion not met, 0.3 and above is criterion met.

A7M; criterion met
V85F; criterion met
L110T; criterion met
V165M; criterion not met
C152M; criterion met
E169V; criterion met
S50H; criterion not met
S184P; criterion met
A15F; criterion not met
F71A; criterion met
D132Q; criterion not met
A12L; criterion not met
P20C; criterion not met
S184A; criterion met
R11C; criterion not met
E120Y; criterion not met
E169T; criterion not met
D99T; criterion not met
L156W; criterion met
S56W; criterion not met
L150C; criterion not met
A172P; criterion met
I118V; criterion not met
G22E; criterion not met
V180K; criterion not met
C152I; criterion met
S61Y; criterion met
D136F; criterion not met
I67G; criterion met
A47V; criterion met
T170C; criterion not met
F71M; criterion met
T78H; criterion met
S54F; criterion not met
A12K; criterion not met
V171Q; criterion met
S184R; criterion not met
K182F; criterion not met
A174R; criterion met
S56K; criterion met
N73M; criterion not met
D161Y; criterion not met
D101C; criterion not met
A21C; criterion not met
Y142M; criterion not met
S54Q; criterion met
I154T; criterion not met
I123D; criterion not met
V171C; criterion not met
K182A; criterion not met
F71Y; criterion not met
S14C; criterion not met
L9E; criterion not met
W24N; criterion met
A3L; criterion met
L117D; criterion met
R60G; criterion not met
S159A; criterion not met
E107L; criterion not met
A7V; criterion met
V167A; criterion met
S148I; criterion met
G108M; criterion met
V69H; criterion met
L156N; criterion met
S14W; criterion not met
A111L; criterion met
I118F; criterion not met
C106S; criterion met
G6I; criterion not met
A4P; criterion not met
R58K; criterion not met
A15I; criterion not met
E77N; criterion not met
R175K; criterion not met
Y142L; criterion not met
S148P; criterion not met
